assay_target: opioid receptor delta (Homo sapiens, UniProt P41143)
Construct: expressed in transfected cells
Sequence (P41143 whole entry): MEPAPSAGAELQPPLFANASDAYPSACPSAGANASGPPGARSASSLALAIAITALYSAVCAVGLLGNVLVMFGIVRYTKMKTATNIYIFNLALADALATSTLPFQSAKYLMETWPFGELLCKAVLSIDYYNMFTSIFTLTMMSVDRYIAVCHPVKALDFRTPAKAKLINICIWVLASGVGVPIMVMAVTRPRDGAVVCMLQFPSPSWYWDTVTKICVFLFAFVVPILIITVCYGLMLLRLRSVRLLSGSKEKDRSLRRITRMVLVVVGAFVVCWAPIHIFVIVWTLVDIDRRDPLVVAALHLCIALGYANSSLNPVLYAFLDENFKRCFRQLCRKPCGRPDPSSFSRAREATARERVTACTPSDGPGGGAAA
method: GTPγ[35S] binding assay, antagonism of BW-373U86
Type: biochemical
run_conditions: read-out: Delta functional (GTPγ[35S] binding Ki)
pKi: −log10 of the molar value.
Binary call on pKi: 1 from 8 upward, 0 beneath that.

Worked examples follow.
In: Given the entry Cc1cc(C(N)=O)ccc1-c1ccc(CNC(C)(C)c2cccc(Cl)c2)cc1 [4B-25] , answer whether its pKi meets or surpasses 8.
Out: 0

In: Given the entry Cc1cc(C(N)=O)ccc1-c1ccc(CNC2CCOc3c(C)cccc32)cc1 (stereo not shown) [4B-22] , answer whether its pKi meets or surpasses 8.
Out: 1

In: Given the entry NC(=O)c1cccc(-c2ccc(CNCC3CCCCO3)cc2Cl)c1 (stereo not shown) [4A-12] , answer whether its pKi meets or surpasses 8.
Out: 0

Next:
In: Given the entry Cc1cc(C(N)=O)ccc1-c1ccc(CNC2(c3ccccc3)CC2)cc1 [4B-24] , answer whether its pKi meets or surpasses 8.
Out: 0

In: Given the entry NC(=O)c1cccc(-c2ccc(CNCC3CCCOC3)cc2Cl)c1 (stereo not shown) [4A-06] , answer whether its pKi meets or surpasses 8.
Out: 0

In: Given the entry Cc1cc(C(N)=O)ccc1-c1ccc(CN[C@@H]2CCc3ccccc32)cc1 [4B-33] , answer whether its pKi meets or surpasses 8.
Out: 1

In: Given the entry Cc1cc(CNCCC(C)C)ccc1-c1ccc(C(N)=O)cc1C.Cl [E2-01, hydrochloride salt] , answer whether its pKi meets or surpasses 8.
Out: 1

In: Given the entry Cc1cc(C(N)=O)ccc1-c1ccc(CNCc2cccc(Cl)c2)cc1 [4B-10] , answer whether its pKi meets or surpasses 8.
Out: 1

In: Given the entry Cc1cc(C(N)=O)ccc1-c1ccc(CNC2CCc3ccccc32)cc1 (stereo not shown) [4B-21] , answer whether its pKi meets or surpasses 8.
Out: 1

In: Given the entry NC(=O)c1ccc(-c2ccc(CNC3Cc4ccccc4C3)cc2)c(Cl)c1 [4B-30] , answer whether its pKi meets or surpasses 8.
Out: 1
